System: IFNα-stimulated STAT-dependent luciferase reporter in Kit225 T cells
Assay: Kit225 T cell assay, IFNα stimulated STAT-dependent luciferase reporter
Type: cell-based, human
Details: Kit225 T cells, 200 U/mL human recombinant IFNα, 5-6 hours, luciferase; read-out: IFNα (Kit225 T Cell Inhibition Data)
Label key: true (1) means IC50 under 500 nM; false (0) means IC50 of 500 nM or more.

Task: Could you please tell me whether IC50 recorded for CNC(=O)c1cnc(Nc2ccc(F)cn2)cc1Nc1ccc(Cl)cc1S(C)(=O)=O [Example 11] is less than 500 nM?
Output: true (1)

Task: Likewise for CNC(=O)c1cnc(Nc2cc(C(=O)N(C)C)ccn2)cc1Nc1cccc(F)c1OC [Example 277] ?
Output: true (1)

Task: Likewise for CNC(=O)c1cnc(Nc2cc(C#N)ccn2)cc1Nc1ccc(S(C)(=O)=O)cc1OC [Example 43] ?
Output: false (0)

Task: Likewise for CNC(=O)c1cnc(Nc2cc(C)ccn2)cc1Nc1cccc(F)c1S(C)(=O)=O [Example 49] ?
Output: false (0)

Task: Likewise for CNC(=O)c1cnc(Nc2cccc(C#N)n2)cc1Nc1ccccc1S(C)(=O)=O [Example 27] ?
Output: true (1)

Task: Likewise for CNC(=O)c1cnc(Nc2ccccn2)cc1Nc1ccc(OC)cc1S(C)(=O)=O [Example 8] ?
Output: true (1)

Task: Likewise for CNC(=O)c1cnc(Nc2cc(C)c(F)cn2)cc1Nc1cccc(C(=O)NCCC(C)C)c1OC [Example 338] ?
Output: true (1)

Task: Likewise for CNC(=O)c1cnc(Nc2cc(C#N)ccn2)cc1Nc1ccccc1NS(C)(=O)=O [Example 281] ?
Output: true (1)

Task: Likewise for CNC(=O)c1cnc(Nc2ccc(F)cn2)cc1Nc1ccc(C(=O)N2CCOCC2)cc1S(C)(=O)=O [Example 305] ?
Output: false (0)

====

System: IFNα-stimulated STAT-dependent luciferase reporter in Kit225 T cells
Assay: Kit225 T cell assay, IFNα stimulated STAT-dependent luciferase reporter
Assay type: cell-based, human
Details: Kit225 T cells, 200 U/mL human recombinant IFNα, 5-6 hours, luciferase; read-out: IFNα (Kit225 T Cell Inhibition Data)
ATTRIBUTE MEASURED: pIC50
Convention used: pIC50 is expressed as -log10 of the molar concentration.

Task: Which pIC50 is reported with IFNα-stimulated STAT-dependent luciferase reporter in Kit225 T cells for this entry: CNC(=O)c1cnc(Nc2ccncn2)cc1Nc1ccccc1S(C)(=O)=O ?
Output: 5.94

Task: Likewise for CNC(=O)c1cnc(Nc2ccc(F)cn2)cc1Nc1ccc(C(N)=O)cc1OC ?
Output: 6.06

Task: Likewise for CCS(=O)(=O)c1ccccc1Nc1cc(Nc2ccccn2)ncc1C(=O)NC ?
Output: 5.91

Task: Likewise for CNC(=O)c1cnc(Nc2cc(C(=O)NCC#N)ccn2)cc1Nc1cccc(F)c1OC ?
Output: 6.02

Task: Likewise for CNC(=O)c1cnc(Nc2ccc3[nH]ccc3n2)cc1Nc1ccc(F)cc1OC ?
Output: 5.97

Task: Likewise for CNC(=O)c1cnc(Nc2cccc(-c3ccccc3)n2)cc1Nc1ccc(Cl)cc1OC ?
Output: 6.12

Task: Likewise for CNC(=O)c1cnc(Nc2ccc(-c3ccccc3)cn2)cc1Nc1ccccc1C(N)=O ?
Output: 6.13

====

System: IFNα-stimulated STAT-dependent luciferase reporter in Kit225 T cells
Test: Kit225 T cell assay, IFNα stimulated STAT-dependent luciferase reporter
Type: cell-based, human
Conditions: Kit225 T cells, 200 U/mL human recombinant IFNα, 5-6 hours, luciferase; read-out: IFNα (Kit225 T Cell Inhibition Data)
ATTRIBUTE MEASURED: pIC50
Convention used: pIC50 is expressed as -log10 of the molar concentration.

Task: Which pIC50 is reported with IFNα-stimulated STAT-dependent luciferase reporter in Kit225 T cells for this entry: CNC(=O)c1cnc(Nc2ccc(F)cn2)cc1Nc1ccc(OC(F)(F)F)cc1C(N)=O ?
Output: 6.37

Task: Likewise for CNC(=O)c1cnc(Nc2cnccn2)cc1Nc1ccccc1S(C)(=O)=O ?
Output: 6.43

Task: Likewise for CNC(=O)c1cnc(Nc2cnccn2)cc1Nc1ccc(F)cc1S(C)(=O)=O ?
Output: 5.81

====

Test system: IFNα-stimulated STAT-dependent luciferase reporter in Kit225 T cells
Assay: Kit225 T cell assay, IFNα stimulated STAT-dependent luciferase reporter
Format: cell-based, human
Details: Kit225 T cells, 200 U/mL human recombinant IFNα, 5-6 hours, luciferase; read-out: IFNα (Kit225 T Cell Inhibition Data)
Give IC50 for every item shown.
The reply should contain only the number, in µM.

Task: Need IC50 of CNC(=O)c1cnc(Nc2cc(C)c(F)cn2)cc1Nc1ccc(C(=O)N2CC(F)(F)C2)cc1S(C)(=O)=O [Example 413] , thanks.
Output: 0.46

Task: Likewise for CNC(=O)c1cnc(Nc2cc(C)nc(C)n2)cc1Nc1cccc(F)c1OC [Example 410] ?
Output: 0.00861

Task: Likewise for CNC(=O)c1cnc(Nc2cc(C)nc(C)n2)cc1Nc1cccc(-c2cnn(C)c2)c1OC [Example 395] ?
Output: 0.02

Task: Likewise for CNC(=O)c1cnc(Nc2cnccn2)cc1Nc1ccccc1C(N)=O [Example 178] ?
Output: 1.88

====

Give IC50 for every item shown.
Tested on: IFNα-stimulated STAT-dependent luciferase reporter in Kit225 T cells
Assay: Kit225 T cell assay, IFNα stimulated STAT-dependent luciferase reporter
Assay type: cell-based, human
Details: Kit225 T cells, 200 U/mL human recombinant IFNα, 5-6 hours, luciferase; read-out: IFNα (Kit225 T Cell Inhibition Data)
The reply should contain only the number, in µM.

Task: Need IC50 of CNC(=O)c1cnc(Nc2ccc(F)cn2)cc1Nc1cccc2c1OC(F)(F)O2 , thanks.
Output: 11.1

Task: Likewise for CNC(=O)c1cnc(Nc2cc(C)c(F)cn2)cc1Nc1cccc(C(=O)NCCCO)c1OC ?
Output: 0.18

Task: Likewise for CNC(=O)c1cnc(Nc2cc(C)c(F)cn2)cc1Nc1cccc(C(=O)NCCc2ccccc2)c1OC ?
Output: 0.08

Task: Likewise for CNC(=O)c1cnc(Nc2ccc(F)cn2)cc1Nc1ccccc1OC(F)F ?
Output: 0.25

Task: Likewise for CNC(=O)c1cnc(Nc2ccc(C#N)cn2)cc1Nc1cc(F)cc(F)c1OC ?
Output: 0.42

Task: Likewise for CNC(=O)c1cnc(Nc2ccc(F)cn2)cc1Nc1cccnc1OC ?
Output: 0.5

Task: Likewise for CNC(=O)c1cnc(Nc2ccc(F)cn2)cc1Nc1ccc(C(=O)N2CCOCC2)cc1OC ?
Output: 0.5

Task: Likewise for CNC(=O)c1cnc(Nc2cc(C(N)=O)ccn2)cc1Nc1cc(F)cc(F)c1OC ?
Output: 0.35

Task: Likewise for CNC(=O)c1cnc(Nc2ccc(N3CCOCC3)cn2)cc1Nc1cc(F)cc(F)c1OC ?
Output: 0.1

Task: Likewise for CNC(=O)c1cnc(Nc2ccccn2)cc1Nc1ccccc1S(N)(=O)=O ?
Output: 0.05

Task: Likewise for CNC(=O)c1cnc(Nc2ccc(F)cn2)cc1Nc1ccccc1CCO ?
Output: 3.17

Task: Likewise for CNC(=O)c1cnc(Nc2ccc(F)cn2)cc1Nc1ccccc1S(=O)(=O)C(F)(F)F ?
Output: 9.57

====

System: IFNα-stimulated STAT-dependent luciferase reporter in Kit225 T cells
Experiment: Kit225 T cell assay, IFNα stimulated STAT-dependent luciferase reporter
Assay type: cell-based, human
Details: Kit225 T cells, 200 U/mL human recombinant IFNα, 5-6 hours, luciferase; read-out: IFNα (Kit225 T Cell Inhibition Data)
Give IC50 for every item shown.
Quote the value and follow it with the unit of measurement.

Task: Which IC50 is reported with IFNα-stimulated STAT-dependent luciferase reporter in Kit225 T cells for this entry: CNC(=O)c1cnc(Nc2cc(C)nc(C)n2)cc1Nc1cccc(-c2nc(C)nn2C)c1OC ?
Output: 30 nM

Task: Likewise for CNC(=O)c1cnc(Nc2cc(C)c(F)cn2)cc1Nc1cccc(C(=O)NCCF)c1OC ?
Output: 80 nM

Task: Likewise for CNC(=O)c1cnc(Nc2cc(C)c(F)cn2)cc1Nc1cccc(-c2nnc(C)[nH]2)c1OC ?
Output: 10 nM

Task: Likewise for CNC(=O)c1cnc(Nc2ccc(N3CCOCC3)cn2)cc1Nc1ccccc1OC ?
Output: 120 nM

====

Tested on: IFNα-stimulated STAT-dependent luciferase reporter in Kit225 T cells
Assay: Kit225 T cell assay, IFNα stimulated STAT-dependent luciferase reporter
Assay type: cell-based, human
Conditions: Kit225 T cells, 200 U/mL human recombinant IFNα, 5-6 hours, luciferase; read-out: IFNα (Kit225 T Cell Inhibition Data)
ATTRIBUTE MEASURED: IC50
Quote the value and follow it with the unit of measurement.

Task: Which IC50 is reported with IFNα-stimulated STAT-dependent luciferase reporter in Kit225 T cells for this entry: CNC(=O)c1cnc(Nc2ccc(F)cn2)cc1Nc1ccc(OC)cc1OC ?
Output: 540 nM

Task: Likewise for CNC(=O)c1cnc(Nc2cccc(F)n2)cc1Nc1ccccc1S(C)(=O)=O ?
Output: 40 nM

Task: Likewise for CNC(=O)c1cnc(Nc2cc(F)ccn2)cc1Nc1cccc(F)c1S(C)(=O)=O ?
Output: 2000 nM

Task: Likewise for CNC(=O)c1cnc(Nc2ccccn2)cc1Nc1ccccc1C(C)(C)O ?
Output: 5970 nM

Task: Likewise for CNC(=O)c1cnc(Nc2cc(C)c(F)cn2)cc1Nc1ccc(C(=O)N2CCCC2)cc1S(C)(=O)=O ?
Output: 210 nM

Task: Likewise for CNC(=O)c1cnc(Nc2ccc(F)cn2)cc1Nc1ccc(C(=O)NCCc2c[nH]cn2)cc1OC ?
Output: 6410 nM

Task: Likewise for CCNC(=O)c1cnc(Nc2ccc(F)cn2)cc1Nc1ccccc1C(N)=O ?
Output: 3290 nM

Task: Likewise for CNC(=O)c1cnc(Nc2ccccn2)cc1Nc1cccc(F)c1S(C)(=O)=O ?
Output: 1390 nM

Task: Likewise for CNC(=O)c1cnc(Nc2ccc(F)cn2)cc1Nc1ccc(F)c(F)c1OC ?
Output: 210 nM

Task: Likewise for CNC(=O)c1cnc(Nc2ccc(F)cn2)cc1Nc1cc2ccccc2cc1C(N)=O ?
Output: 440 nM

Task: Likewise for CNC(=O)c1cnc(Nc2cc(C)c(F)cn2)cc1Nc1cccc(C(=O)Nc2ccccc2)c1OC ?
Output: 120 nM

Task: Likewise for CNC(=O)c1cnc(Nc2ccc(N3CCOCC3)cn2)cc1Nc1c(F)cccc1OC ?
Output: 2810 nM

Task: Likewise for CNC(=O)c1cnc(Nc2cc(C)c(F)cn2)cc1Nc1cccc(C(=O)NCCO)c1OC ?
Output: 440 nM

Task: Likewise for CNC(=O)c1cnc(Nc2ccc(N3CCOCC3)cn2)cc1Nc1ccccc1C ?
Output: 1480 nM

Task: Likewise for CNC(=O)c1cnc(Nc2ccccn2)cc1Nc1ccc(Cl)cc1S(C)(=O)=O ?
Output: 50 nM

Task: Likewise for CNC(=O)c1cnc(Nc2ccccn2)cc1Nc1cccc(F)c1OC ?
Output: 50 nM
